# Test Target: C. difficile toxin A from strain VPI10463 (ATCC 43255), toxinotype 0 (Clostridium difficile, UniProt P16154 1-2710)
# Sequence (P16154 whole entry): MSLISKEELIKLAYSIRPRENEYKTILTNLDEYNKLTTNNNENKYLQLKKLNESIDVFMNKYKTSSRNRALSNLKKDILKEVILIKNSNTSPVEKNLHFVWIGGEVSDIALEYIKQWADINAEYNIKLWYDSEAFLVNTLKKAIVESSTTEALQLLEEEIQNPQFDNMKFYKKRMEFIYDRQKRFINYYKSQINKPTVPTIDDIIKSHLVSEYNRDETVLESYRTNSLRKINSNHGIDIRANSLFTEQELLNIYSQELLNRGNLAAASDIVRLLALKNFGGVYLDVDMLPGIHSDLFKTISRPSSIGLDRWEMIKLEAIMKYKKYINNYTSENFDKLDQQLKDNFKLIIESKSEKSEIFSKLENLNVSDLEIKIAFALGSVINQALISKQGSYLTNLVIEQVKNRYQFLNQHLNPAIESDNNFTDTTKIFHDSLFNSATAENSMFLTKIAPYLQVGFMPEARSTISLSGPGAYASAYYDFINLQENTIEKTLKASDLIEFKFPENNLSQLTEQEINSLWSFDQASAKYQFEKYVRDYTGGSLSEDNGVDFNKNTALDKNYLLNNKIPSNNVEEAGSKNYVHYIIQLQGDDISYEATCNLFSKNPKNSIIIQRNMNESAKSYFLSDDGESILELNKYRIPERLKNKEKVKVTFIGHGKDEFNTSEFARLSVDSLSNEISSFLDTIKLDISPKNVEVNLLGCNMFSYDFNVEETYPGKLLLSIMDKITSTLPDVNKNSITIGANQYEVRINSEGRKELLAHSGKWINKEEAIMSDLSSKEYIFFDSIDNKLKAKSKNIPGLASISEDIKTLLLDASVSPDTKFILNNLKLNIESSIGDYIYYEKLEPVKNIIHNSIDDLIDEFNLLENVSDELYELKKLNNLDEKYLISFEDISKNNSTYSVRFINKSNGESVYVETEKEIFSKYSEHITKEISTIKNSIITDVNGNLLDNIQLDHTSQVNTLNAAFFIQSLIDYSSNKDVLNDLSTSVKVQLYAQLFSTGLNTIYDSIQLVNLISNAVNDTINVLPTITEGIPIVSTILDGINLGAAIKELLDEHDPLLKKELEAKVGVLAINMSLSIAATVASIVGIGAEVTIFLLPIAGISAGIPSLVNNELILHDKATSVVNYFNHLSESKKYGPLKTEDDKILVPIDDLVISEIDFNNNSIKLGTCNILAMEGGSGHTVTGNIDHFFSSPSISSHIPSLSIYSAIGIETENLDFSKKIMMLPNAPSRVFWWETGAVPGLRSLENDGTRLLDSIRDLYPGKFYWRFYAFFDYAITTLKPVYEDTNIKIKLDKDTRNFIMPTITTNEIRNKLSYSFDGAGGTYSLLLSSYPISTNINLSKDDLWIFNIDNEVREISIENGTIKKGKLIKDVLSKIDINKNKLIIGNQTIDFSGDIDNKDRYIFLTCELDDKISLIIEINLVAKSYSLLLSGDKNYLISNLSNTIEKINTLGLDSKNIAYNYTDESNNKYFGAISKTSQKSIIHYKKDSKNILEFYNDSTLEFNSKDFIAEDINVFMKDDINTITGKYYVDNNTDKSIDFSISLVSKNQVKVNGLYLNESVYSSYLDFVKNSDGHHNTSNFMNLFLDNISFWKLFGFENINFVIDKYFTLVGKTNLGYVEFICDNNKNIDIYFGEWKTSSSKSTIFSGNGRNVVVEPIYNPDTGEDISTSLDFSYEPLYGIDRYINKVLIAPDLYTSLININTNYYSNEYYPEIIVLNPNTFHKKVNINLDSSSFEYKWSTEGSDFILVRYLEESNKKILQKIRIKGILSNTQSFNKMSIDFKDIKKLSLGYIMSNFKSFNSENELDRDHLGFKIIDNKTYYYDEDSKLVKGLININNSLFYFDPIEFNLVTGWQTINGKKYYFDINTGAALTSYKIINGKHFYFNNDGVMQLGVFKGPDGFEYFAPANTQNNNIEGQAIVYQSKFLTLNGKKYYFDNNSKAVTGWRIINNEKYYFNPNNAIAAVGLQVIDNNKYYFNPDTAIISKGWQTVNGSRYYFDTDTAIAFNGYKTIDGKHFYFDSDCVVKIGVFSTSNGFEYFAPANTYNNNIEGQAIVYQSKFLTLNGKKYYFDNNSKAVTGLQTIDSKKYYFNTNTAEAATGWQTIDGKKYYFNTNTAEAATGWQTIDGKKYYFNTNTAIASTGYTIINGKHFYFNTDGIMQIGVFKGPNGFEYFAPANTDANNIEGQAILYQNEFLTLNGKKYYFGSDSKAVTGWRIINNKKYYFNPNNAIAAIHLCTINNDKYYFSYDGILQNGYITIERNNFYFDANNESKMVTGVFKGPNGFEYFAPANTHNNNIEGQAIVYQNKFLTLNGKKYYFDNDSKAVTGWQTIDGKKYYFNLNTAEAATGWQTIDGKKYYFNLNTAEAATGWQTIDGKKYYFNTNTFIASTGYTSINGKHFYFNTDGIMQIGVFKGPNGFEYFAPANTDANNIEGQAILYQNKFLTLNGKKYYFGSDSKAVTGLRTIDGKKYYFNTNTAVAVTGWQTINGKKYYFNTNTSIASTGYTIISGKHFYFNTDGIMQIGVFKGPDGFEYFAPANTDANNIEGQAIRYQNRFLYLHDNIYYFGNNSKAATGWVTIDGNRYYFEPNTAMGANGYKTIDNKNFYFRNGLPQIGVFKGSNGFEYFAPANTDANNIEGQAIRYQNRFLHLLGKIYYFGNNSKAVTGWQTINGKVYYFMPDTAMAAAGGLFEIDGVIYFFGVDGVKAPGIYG
# Procedure Details: cell-based or functional assay
# Lookup of reported TEER NT50, nM (T-84 cells) keyed by entry

Please supply the value of reported TEER NT50, nM (T-84 cells) for the item A4 antibody (antibody, V domains shown) VH: QVHLVESGGGVVQPGRSLRLSCATFGLNFSDYGFHWVRQAPGKGLEWVAVTSYDGSNKYYAEFVKGRFTISRDNYKNTVYLQMNSLRLEDTAVYYCARDLAPYNFWSGYGNNWFDPWGQGTLVTVSS VL: EIVLTQSPGTLSLSPGERATLSCRASQSVTGTSLAWFQQKPGQAPRLLIYGASSRATGIPDRFSGSGSGTDFTLTISRLEPEDFAVYYCQQYGSSPRLTFGGGTKVEIKR
4.7 nM
